Assay: Solubility in water
Type: physicochemical
Residues, ends and D or L forms follow the SMILES beside them.
Measured solubility by item
The reply should read as a number followed by its unit.

CC(C)C[C@H](NC(=O)[C@H](C)NC(=O)[C@H](CCC(N)=O)NC(=O)[C@H](Cc1c[nH]cn1)NC(=O)[C@H](CO)NC(=O)[C@H](Cc1ccc(O)cc1)NC(=O)[C@H](Cc1ccccc1)NC(=O)CNC(=O)[C@H](CC(N)=O)NC(=O)[C@@H](N)CCC(N)=O)C(=O)N[C@@H](Cc1c[nH]cn1)C(=O)N[C@@H](C)C(=O)N[C@@H](Cc1c[nH]c2ccccc12)C(=O)N[C@@H](Cc1c[nH]cn1)C(=O)N[C@@H](CCCNC(=N)N)C(=O)O [P25] (H-QNGFYSHQALHAWHR-OH; N-terminus and C-terminus assumed) :: 10000 µg/mL

Attention now shifts to the item below.
Reported solubility for CC(C)C[C@H](NC(=O)[C@H](CCC(=O)O)NC(=O)[C@H](CCC(N)=O)NC(=O)[C@H](Cc1ccccc1)NC(=O)[C@H](CCCNC(=N)N)NC(=O)[C@@H](NC(=O)[C@H](Cc1ccccc1)NC(=O)[C@H](CCCCN)NC(=O)[C@H](CCC(N)=O)NC(=O)[C@H](CCCNC(=N)N)NC(=O)CNC(=O)[C@H](CCC(=O)O)NC(=O)[C@@H](N)CC(=O)O)C(C)C)C(=O)N[C@@H](C)C(=O)N[C@H](C(=O)O)C(C)C [P34] (H-DEGRQKFVRFQELAV-OH; N-terminus and C-terminus assumed) was 1000 µg/mL
